- ASSAY NAME: S. pombe growth modifiers, basal conditions – strain 972, OD600, 24 h, no modulator, primary screen (AID 1090);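 note: basal condition with compound alone and no growth modifier present; test concentration not given here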
- RUN PARAMETERS: S. pombe 972 growth, higher = more signal, called active from +8 up or from −8 down
Parameter: z-score. Scope: all listed entries.
REPORTED ENDPOINT: z-score

- MOLECULE: "C=C(C(=O)CC[C@H](OC(C)=O)c1ccccc1OCCO)C(C)C"
  REPORTED ENDPOINT: "z-score"
  VAL: -20.2
- MOLECULE: "O=C1C2C=CC(C(O)C=Cc3ccc([N+](=O)[O-])cc3)N(n3cnnc3)C2C(=O)N1Cc1ccccc1 (stereo not drawn)"
  REPORTED ENDPOINT: "z-score"
  VAL: -3.83
- MOLECULE: "COc1cc(CO)cc(I)c1O[C@H]1C=C(C(=O)NCCO)C[C@@H](N(C(=O)c2cc3ccccc3oc2=O)C2CCCCCC2)[C@@H]1O"
  REPORTED ENDPOINT: "z-score"
  VAL: -1.59
- MOLECULE: "CC(C)C(=C=CC[C@H](O)c1ccc(CO)o1)CCO"
  REPORTED ENDPOINT: "z-score"
  VAL: -0.697
- MOLECULE: "CN1C(=O)C2C=CC(C(O)c3ccc(F)cc3)N(N(c3ccccc3)c3ccccc3)C2C1=O (stereo not drawn)"
  REPORTED ENDPOINT: "z-score"
  VAL: 0.91
- MOLECULE: "COc1cc2c(cc1O)C(c1cccs1)N(Cc1cccc(OC(F)(F)F)c1)CC2 (stereo not drawn)"
  REPORTED ENDPOINT: "z-score"
  VAL: -8.15
- MOLECULE: "COCCOC(=O)N1C(=O)[C@@]2(c3cc(C#CC4(O)CCCCCC4)ccc31)[C@H](C(=O)Nc1nc3ccccc3s1)[C@H]1C(=O)O[C@H](c3ccccc3)[C@H](c3ccccc3)N1[C@@H]2c1ccccc1OCCO"
  REPORTED ENDPOINT: "z-score"
  VAL: 0.249
- MOLECULE: "COc1ccc(C(O)C2C=CC3C(=O)N(C)C(=O)C3N2NC(=O)OC(C)(C)C)c2ccccc12 (stereo not drawn)"
  REPORTED ENDPOINT: "z-score"
  VAL: 1.64
